Target: Bcl-xL, Q07817
Sequence (Q07817 1-209): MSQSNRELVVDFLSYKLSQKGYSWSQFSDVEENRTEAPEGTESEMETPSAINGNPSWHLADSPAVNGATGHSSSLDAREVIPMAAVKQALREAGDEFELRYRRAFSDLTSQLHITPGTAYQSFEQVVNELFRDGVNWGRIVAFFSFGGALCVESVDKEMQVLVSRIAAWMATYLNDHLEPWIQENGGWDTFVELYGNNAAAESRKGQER
Test: peptide SPOT array, c-Myc-tagged receptor at 1 uM or 100 nM, anti-c-Myc-Cy3
Define the label as yes when SPOT signal as a fraction of Bim BH3's signal on the same receptor and array is strictly less than 0.04 and as no in all remaining cases.

binder | groupLabel
LANVTEDAKRLIAVADSVLTKVVGDL [RNF213] | yes

Consider the additional binder presented here.
Query string: Just wondering, is SPOT signal as a fraction of Bim BH3's signal on the same receptor and array of RHFVIRRGQVDREIAEEYGGVMVSFP [HDLBP] below 0.04?
Result string: yes
